Test system: DU-145
Test: NCI tumour cell line growth inhibition, 48 h
Activity calls are given as the source filed them. Rule as the data show it: active = GI50 up to about 1.1 µM and inactive = higher.
Use one of these outcomes when replying: TRUE (active), FALSE (inactive)

Reference set, count: 3
>>> discrete_label("CC(=O)OCCc1cc2ccccc2oc1=O")
"FALSE"
>>> discrete_label("NCCCNCCCNCCCN")
"FALSE"
>>> discrete_label("Cc1c2c3cc(O)ccc3nc-2n(C)c2ccccc12")
"FALSE"

Q) Check the results log: what was the call for "O=NN(CCCl)C(=O)NC1CCCCC1" ?
A) FALSE

Q) For "O=C(Nc1ccccc1)c1cc2ccccc2c(/N=N\c2cccc([N+](=O)[O-])c2)c1O" , what call appears in the results of this test?
A) FALSE

Q) Tell me the recorded outcome of this test for CC(c1ccccc1)n1cncc1C(=O)NN1CCN(C)CC1 (configuration not stated) .
A) FALSE

----------
For each of the molecules below, state its GI50.
Tested on: BT-549
Assay: NCI tumour cell line growth inhibition, 48 h
Active and inactive are the calls of the source. Rule as the data show it: active = GI50 up to about 1.1 µM and inactive = higher.

Recorded results for 3 molecules are shown here.
>>> result("Nc1nc(O)c2nc3c(nc2n1)C(=O)N(c1ccc(C(=O)O)cc1)C3")
"> 100 µM (inactive)"
>>> result("CN1CC[C@@]2(c3cccc(O)c3)CC(=O)/C(=C/c3ccc(Cl)c(Cl)c3)[C@H]1C2")
"2.52 µM (inactive)"
>>> result("CC(=O)Nc1nc2c(=O)c3ccccc3sc2s1")
"> 100 µM (inactive)"

Q) Find the measured GI50 of "S=c1cc(-c2ccc3c(c2)OCO3)s[nH]1" and report it.
A) > 100 µM (inactive)

----------
Entries below carry reported GI50 on HCT-15.

Record excerpt, results attached:
>>> result("Cc1cccc(C(O)c2ccncc2)c1O (centres undefined)")
"> 100 µM"
>>> result("CSc1ccn(C2CC(F)C(CO)O2)c(=O)n1 (centres undefined)")
"> 100 µM"
>>> result("CCOC(=O)[C@H](CO)NC1=C(Cl)C(=O)c2c(O)ccc(O)c2C1=O")
"> 10 µM"

Switching to the query record.
Q) System HCT-15. Read-out GI50. Item O=C1CC(c2cccc(Cl)c2)n2cccc21 (centres undefined) . Report value.
A) > 100 µM

----------
Kindly state GI50 for each of the entries shown.
Tested on: SK-MEL-2
Experiment: NCI tumour cell line growth inhibition, 48 h
The source made the active and inactive calls. No stated cut-off is given here; in the data, active = GI50 up to about 1.1 µM and inactive = higher.

Answered cases to consult:
>>> result("CCOc1c2c(cc3c1C(=O)c1c(OC)cccc1C3=O)C=C(OC)CC2")
"> 25 µM (inactive)"
>>> result("Cc1c(CCCl)c(Cl)n2c(nc3ccccc32)c1C#N")
"1.06 µM (active)"
>>> result("COC(=O)C1=CC(=O)OC1(OO)c1ccc(Br)cc1 (stereo not given)")
"> 100 µM (inactive)"
>>> result("c1cc(C2=NCCO2)c2ccsc2c1")
"> 100 µM (inactive)"

Could you report GI50 for every entry in the following list?
1. C[C@@H]1C(=O)CC2(O)[C@@]13C[C@@H](OC(=O)[C@@H]3O)[C@@H](C)[C@@]21COC1=O (stereo not given in full)
2. Cc1cc(C)cc(Sc2c([N+](=O)[O-])ncn2C)c1
3. CC(C)c1c(P(=O)(c2ccccc2)c2ccccc2)n(C)c2ccccc12
4. C[Si](C)(C)OC1c2[nH]c3ccccc3c2CN2C(=O)CCC12 (stereo not given)
5. CC1OC(OC2C(O)COC(OC3C(C)OC(OC4C(OC(=O)[C@]56CCC(C)(C)C[C@@H]5C5=CCC7[C@@]8(C)C[C@H](O)[C@H](OC9OC(CO)C(O)C(O)C9O)[C@@](C)(CO)[C@@H]8CC[C@@]7(C)[C@]5(C)CC6)OCC(O)C4O)C(O)C3OC3OCC(O)C(O)C3O)C2O)C(O)C(O)C1O (stereo not given in full)
6. O=S(=O)(c1cccc(N=C=S)c1)c1cccc(N=C=S)c1
7. c1cnn(CN(Cn2cccn2)Cn2cccn2)c1

A)
1. > 100 µM (inactive)
2. 10.6 µM (inactive)
3. 88.3 µM (inactive)
4. > 100 µM (inactive)
5. 21.4 µM (inactive)
6. 18.5 µM (inactive)
7. > 100 µM (inactive)

----------
Tested on: LOX IMVI
Assay: NCI tumour cell line growth inhibition, 48 h
Calls of active or inactive are those of the source. Cut-off read from the data, not from the text of the source: active = GI50 up to about 1.1 µM and inactive = higher.
Write down the outcome that applies. Available outcomes: 1 (yes) = active, 0 (no) = inactive

Answered cases to consult:
>>> discrete_label("C=C1C(O)C23CCC4C(C(=O)O)(C(=O)O)CC(OC5OC(CO)C(O)C(OC(=O)CCc6ccccc6)C5NC(=O)CC(C)C)CC4(C)C2CCC1(O)C3 (centres undefined)")
"0 (no)"
>>> discrete_label("O=C(c1nc2ccc(Cl)cc2[nH]c1=O)C(O)c1ccco1 (centres undefined)")
"0 (no)"
>>> discrete_label("CC(=O)OC1(C(C)=O)CC2(c3ccccc3)OC1(c1ccccc1)c1ccccc12 (centres undefined)")
"0 (no)"

Q) Recorded call for "CC(=O)c1c2c(c3ccccc3c1O)O[C@@H]1OCC[C@H]21" ?
A) 0 (no)

Q) // outcome(item) with item = "Cc1cc([N+](=O)[O-])c(S(=O)(=O)c2ccccc2)c([N+](=O)[O-])c1"
A) 0 (no)

Q) Hey, what did the test say about CCCCc1ccc(Nc2nc(Cl)c3c(ncn3C3CC(Oc4ccc(C)cc4)C(COc4ccc(C)cc4)O3)n2)cc1 (centres undefined) ?
A) 0 (no)

Q) Please share the test call associated with "CN1CC[C@@]2(c3cccc(O)c3)CC(=O)/C(=C/c3ccc(Cl)c(Cl)c3)[C@H]1C2" .
A) 0 (no)

Q) Can you look up the reported call for "CN[C@@H](Cc1cccc2ccccc12)C(=O)N[C@@H](CC(C)C)B(O)O" for me?
A) 1 (yes)

Q) Test call, this compound: "CCN(CC)CCn1c2ccccc2c(=O)c2c(O)ccc(O)c21"
A) 0 (no)

Q) Returns: the outcome recorded for "COc1ccc(/C=C/c2nsc(/C=C/c3ccc(OC)cc3)n2)cc1" in this assay.
A) 0 (no)

Q) Field: outcome | Entry: "Cc1[nH]n(-c2ncc(C#N)c(=O)[nH]2)c(=O)c1CCO"
A) 0 (no)

Q) What did this assay record as the result for NC(CC1=CCC=CC1)C(=O)O (centres undefined) ?
A) 0 (no)

Q) What classification did COC1(C)CCC(OS(C)(=O)=O)CO1 (centres undefined) end up with in this test?
A) 0 (no)

Q) I'd appreciate the recorded outcome for Cc1cc(C23OC4COC(C)(C)OC4C2OC(C)(C)O3)nc2ccccc12 (centres undefined) from this test.
A) 0 (no)

Q) Which outcome was entered for the compound "COc1ccc(O)c(C(=O)CCC(=O)O)c1" in this test?
A) 0 (no)

Q) // return assay outcome for Cc1cc(O)c(C=O)c2c1C(=O)Oc1c(CO)c(O)c3c(c1O2)C(O)OC3=O (centres undefined)
A) 0 (no)

Q) Can you look up the reported call for "O=[N+]([O-])c1ccccc1S(=O)(=O)c1cccc2c1NCCC2" for me?
A) 0 (no)

Q) Lab log entry: O=C(Nc1cccc(C(F)(F)F)c1)C(=O)C(C(=O)c1ccc2ccccc2c1)C1OC(=O)c2ccccc21 (centres undefined) — outcome as called in the assay?
A) 0 (no)

Q) Hi team, can someone confirm the assay call for COc1ccc(Cc2c(-c3ccc(C)cc3)n[nH]c(=O)c2C2C(=O)N(c3ccccc3)N=C2c2ccccc2)cc1 (centres undefined) ?
A) 0 (no)

----------
Exercise: for every item that follows, state its recorded GI50.
Tested on: SF-268
Experiment: NCI tumour cell line growth inhibition, 48 h
Calls of active or inactive are those of the source. No stated cut-off is given here; in the data, active = GI50 up to about 1.1 µM and inactive = higher.

Below, each entry is followed by its recorded GI50 result.
>>> result("C/C(=C\\COP(=O)(O)OP(=O)(O)O)CCCCCCOCc1ccccc1")
"> 100 µM (inactive)"
>>> result("FC(F)(F)c1ccc(C2ON=C(c3ccccc3)N2C23CC4CC(CC(C4)C2)C3)cc1 (stereo not given)")
"> 10 µM (inactive)"
>>> result("O=C1CC2CCC(C1)[S+]2[O-] (stereo not given)")
"> 100 µM (inactive)"
>>> result("COc1ccc(OC)c(NC(=O)CCC/C(CC(=O)c2ccc(O)c(OC)c2)=N\\NC(=O)C[N+](C)(C)C)c1")
"> 100 µM (inactive)"
>>> result("CCCCn1c2c(n(CCCC)c1=S)-c1c(n(CCCC)c(=S)n1CCCC)S[Se][Se]S2")
"7.13 µM (inactive)"

Fill in GI50 for each of the 8 compounds listed.
1. CC1(Cl)CC2OC3(Br)C=CC(C)(O)C2(CC1Br)C3(C)C (stereo not given)
2. COC(=O)C(=O)C(C(=O)C=C(C)C)C(=O)C(=O)Nc1nc2ccc([N+](=O)[O-])cc2s1 (stereo not given)
3. Cc1c(CCCl)c(Cl)n2c(nc3ccccc32)c1C#N
4. CCCCc1ccc(Nc2nc(Cl)c3c(ncn3C3CC(Oc4ccc(C)cc4)C(COc4ccc(C)cc4)O3)n2)cc1 (stereo not given)
5. COc1cccc(C2C(C(=O)O)=C(CO)Oc3cc4c(cc32)OCO4)c1OC (stereo not given)
6. CC(=O)OCC1OC(n2c(-c3cccs3)c3c(c(C#N)c2=S)-c2ccccc2CC3)C(OC(C)=O)C(OC(C)=O)C1OC(C)=O (stereo not given)
7. CO[C@H]1C[C@@H]2CC[C@@H](C)[C@@](O)(O2)C(=O)C(=O)N2CCCC[C@H]2C(=O)O[C@H]([C@H](C)C[C@@H]2CC[C@@H](OC(=O)C(C)(CO)CO)[C@H](OC)C2)CC(=O)[C@H](C)/C=C(\C)[C@@H](O)[C@@H](OC)C(=O)[C@H](C)C[C@H](C)/C=C/C=C/C=C/1C
8. O=C(O)C(O)(c1ccc(-c2ccccc2)cc1)c1ccc(-c2ccccc2)cc1

A)
> 100 µM (inactive)
39 µM (inactive)
1.49 µM (inactive)
> 100 µM (inactive)
> 100 µM (inactive)
14.9 µM (inactive)
0.00873 µM (active)
24.3 µM (inactive)

Give measured GI50 for every item shown.
1. CN1C2CCC1CC(=CCOC(c1ccc(F)cc1)c1ccc(F)cc1)C2
2. CCc1cccc(C(C)(C)C)c1NC(=S)N/C=C(/C#N)C(N)=O

A)
12.9 µM (inactive)
> 100 µM (inactive)

Data provenance: ChEMBL document CHEMBL1201862
